assay.protocol: soluble on expression in E. coli; label from the status in PepcDB or PDB records

- sequence.content: "MKNILVFLMLGVMLSALQELRYPSGYRVNGSRVFYTYIELTEIDMTTFEILNERYAKDKNAVYYEGKVIVNVDPEDFELLGDFFGKTKNNIYIGNTIIKDADINSFELLGHSRSRDKNHVFFADKILKNADPATYIVFNNKYAKDKNHVYFWDKEIENADAPTFEVLNGEYGKDKNRVYYNSRVVRKADPATFRILEGPFSKDKNYVYVTGEIFEKADVKTFQTLGDYGYAKDKRYVYRYNKILEGEKPADFLPPPQPVIMY"
  soluble on expression in E. coli: "not soluble"
- sequence.content: "QELPTDLSEVFVDFSKEPLASGSVAQTHRARLLSGQEVIIKIQRPGIDDIVKEDIQLLIKLARHIPKHFISMVDVQEVLENLCETLIKELDFKNEAEAMKRFRANNKRVVCLGVPEVY"
  soluble on expression in E. coli: "not soluble"
- sequence.content: "RSTMKYIRTLSAEIGILEGGNLDYRITVTGSDEMAVLAKGLDSMRESIRDKISQEAELIRLNQSMITGLSHDLRTPLTALLIYTEILKNEIDADRKQMQKWVLKIDEKAHQIKDMADCILNYSLLKKAAGPTALRQEPFRSVFYDSLSELCVCLEQKGFEVRPSLAWEDREICADSKYITRILDNICSNIIKYASCGDPIRIESFYQTDGCGLVFENKKSANQTQAESTGIGVRNIREMMEEMGGCCEAEETSEDYRIRLTFACSPAV"
  soluble on expression in E. coli: "not soluble"
- sequence.content: "MGSDKIHHHHHHMITFIGHVSKDVNVVDGKREIAYGGGVVMGAITSSLLGVKTKVITKCTREDVSKFSFLRDNGVEVVFLKSPRTTSIENRYGSDPDTRESFLISAADPFTESDLAFIEGEAVHINPLWYGEFPEDLIPVLRRKVMFLSADAQGFVRVPENEKLVYRDWEMKEKYLKYLDLFKVDSREAETLTGTNDLRESCRIIRSFGAKIILATHASGVIVFDGNFYEASFRSWSLEGRTGRGDTCTAAFLVGFVFKKMSIEKATKFAAAVTSVKMRHPGPLRREDLEAISGDQYF"
  soluble on expression in E. coli: "soluble"
- sequence.content: "MGHHHHHHMAGVSEYELPEDPRWELPRDRLVLGKPLGEGAFGQVVLAEAIGLDKDKPNRVTKVAVKMLKSDATEKDLSDLISEMEMMKMIGKHKNIINLLGACTQDGPLYVIVEYASKGNLREYLQARRPPGLEFSFNPSHNPEEQLSSKDLVSCAYQVARGMEYLASKKCIHRDLAARNVLVTEDNVMKIADFGLARDIHHIDYYKKTTNGRLPVKWMAPEALFDRIYTHQSDVWSFGVLLWEIFTLGGSPYPGVPVEELFKLLKEGHRMDKPSNCTNELYMMMRDCWHAVPSQRPTFKQLVEDLDRIVALTSNQEYLDLSMPLD"
  soluble on expression in E. coli: "soluble"
- sequence.content: "QTVAIKMGADNGMLAFEPSTIEIQAGDTVQWVNNKLAPHNVVVEGQPELSHKDLAFSPGETFEATFSEPGTYTYYCEPHRGAGMVGKIVVQ"
  soluble on expression in E. coli: "soluble"

====

assay.protocol: soluble on expression in E. coli; label from the status in PepcDB or PDB records

- sequence.content: "MFRISLEEFEGPLDLLLFFIKRDELDIYNIPISKITGDFIAYIHAMRRLNLEVAAEFIYMASMLMSIKARMLLPRAEPVDGEADEFDPRTELVQRLLEYKRIKEGASELELMALDRERMFPRGYFEELEPAVIDEMDEPVNRPTLYHLMLAYQSVLDNMPKVRTQNVTDAPVTVEEQSALIMARLGERLQVSFTSLFQEFREAIVIVVTFLAVLELCRNRKISVIVKEGVNDFWISQRDHAE"
  soluble on expression in E. coli: "soluble"
- sequence.content: "MHQQIIKFWFEELTPQNWFENNPELDKHIASRFASVLEQAARCELFNWRDSAQGRLAEIIVLDQFSRNVYRNTPKAFAQDPLALALAQEAIRLGHDQELAPEQLSFLYMPFMHSESRLIHVEAEKLFRASGLENNYDFELKHKAIIDQFGRYPHRNAILGRESTPEELAFLQQPGS"
  soluble on expression in E. coli: "soluble"
